For each of the compounds below, state its bioavailability.
Test Details: Oral bioavailability in rat
Type: ADME, organism-based
Condition Label: in vivo
Answer by giving the amount and then stating its unit.

Chem Smiles	bioavailability
C/C(=C\c1cc(F)c(OCCCF)cc1F)C(=O)N[C@@H]1[C@H](O)[C@@H](O)[C@H]2OCO[C@H]2[C@@H]1O	20%

Now consider a different compound.
query: Would you mind telling me what bioavailability value was observed for COCCCO[C@@H]1[C@H](NC(=O)/C(C)=C/c2cc(F)c(OCCCF)cc2F)[C@H](O)[C@@H](O)[C@H]2OCO[C@H]21 ?
result: 90%

###

For each record, write down the corresponding MIC.
Tested on: Streptococcus pyogenes
Test Details: Antimicrobial activity against Streptococcus pyogenes 1079
Format: functional
Answers are plain numbers, in µg/mL.

Example entries begin here.
Chem Smiles	Result Value
CO[C@@H]1[C@H](NC(=O)/C(C)=C/c2cc(F)c(OCCCF)cc2F)[C@H](O)[C@@H](O)[C@H]2OCO[C@H]21	1.56
C/C(=C\c1cc(F)c(OCCCF)cc1F)C(=O)N[C@@H]1[C@H](O)[C@@H](O)[C@H]2OCO[C@H]2[C@@H]1OCc1ccccc1	2

Here are 3 compounds. What values of MIC were reported for them?
1. CCCO[C@@H]1[C@H](NC(=O)/C(C)=C/c2cc(F)c(OCCCF)cc2F)[C@H](O)[C@@H](O)[C@H]2OCO[C@H]21
2. C/C(=C\c1cc(F)c(OCCCF)cc1F)C(=O)N[C@@H]1[C@H](O)[C@@H](O)[C@H]2OCO[C@H]2[C@@H]1OCC1CC1
3. C/C(=C\c1cc(F)c(OCCCF)cc1F)C(=O)N[C@@H]1[C@H](O)[C@@H](O)[C@H]2OCO[C@H]2[C@@H]1OCC#N

result:
1
0.5
0.25

###

Tested on: Streptococcus pyogenes
Test Details: Antimicrobial activity against Streptococcus pyogenes 2035
Assay type: functional
Endpoint Name: log10(MIC) (log10 of the value in µg/mL)
A difference of one corresponds to tenfold MIC; all values are log10 with MIC in µg/mL.

Molecule	Result Value
C/C(=C\c1cc(F)c(OCCCF)cc1F)C(=O)N[C@H]1[C@@H](O)[C@@H]2OCO[C@@H]2[C@H](O)[C@H]1OCc1ccccc1	1.81
C/C(=C\c1cc(F)c(OCCCF)cc1F)C(=O)N[C@@H]1[C@H](O)[C@@H](O)[C@H]2OCO[C@H]2[C@@H]1OCCCF	-0.30
C/C(=C\c1cc(F)c(OCCCF)cc1F)C(=O)N[C@@H]1[C@H](O)[C@@H](O)[C@H]2OCO[C@H]2[C@@H]1OCC1CC1	0.00
CO[C@@H]1[C@@H](O)[C@@H](NC(=O)/C(C)=C/c2cc(F)c(OCCCF)cc2F)[C@@H](O)[C@@H]2OCO[C@H]12	2.00
CC(=O)[C@H]1O[C@@H](Oc2ccc(/C=C(\C)C(=O)N[C@@H]3[C@H](O)[C@@H](O)[C@H]4OCO[C@H]4[C@@H]3O)cc2O)[C@@H](O)[C@@H]1O	0.80
C/C(=C\c1cc(F)c(OCCCF)cc1F)C(=O)N[C@@H]1[C@H](O)[C@@H](O)[C@H]2OCO[C@H]2[C@@H]1O	0.30

Give log10(MIC) for all molecules that follow.
1. C/C(=C\c1cc(F)c(OCCCF)cc1F)C(=O)N[C@@H]1[C@H](O)[C@@H](O)[C@H]2OCO[C@H]2[C@@H]1OCC#N
2. C/C(=C\c1cc(F)c(OCCCF)cc1F)C(=O)N[C@@H]1[C@H](O)[C@@H](O)[C@H]2OCO[C@H]2[C@@H]1OCc1ccccc1C#N
3. CO[C@@H]1[C@H](NC(=O)/C(C)=C/c2cc(F)c(OCCCF)cc2F)[C@H](O)[C@@H](O)[C@H]2OCO[C@H]21
4. C=CCOc1ccc(/C=C(\C)C(=O)N[C@@H]2[C@H](O)[C@@H](O)[C@H]3OCO[C@H]3[C@@H]2O)cc1O
5. CCO[C@@H]1[C@H](NC(=O)/C(C)=C/c2cc(F)c(OCCCF)cc2F)[C@H](O)[C@@H](O)[C@H]2OCO[C@H]21
6. CCCO[C@@H]1[C@@H](O)[C@H]2OCO[C@H]2[C@H](O)[C@@H]1NC(=O)/C(C)=C/c1cc(F)c(OCCCF)cc1F
7. CCCO[C@@H]1[C@H](NC(=O)/C(C)=C/c2cc(F)c(OCCCF)cc2F)[C@H](O)[C@@H](O)[C@H]2OCO[C@H]21
8. C/C(=C\c1cc(F)c(OCCCF)cc1F)C(=O)N[C@@H]1[C@H](O)[C@@H](O)[C@H]2OCO[C@H]2[C@@H]1OCc1ccccc1

result:
-0.30
-0.60
0.19
0.19
0.60
1.81
0.60
1.20

I need log10(MIC) for every entry listed below, if you could help.
1. CCO[C@@H]1[C@@H](O)[C@H]2OCO[C@H]2[C@H](O)[C@@H]1NC(=O)/C(C)=C/c1cc(F)c(OCCCF)cc1F
2. C/C(=C\c1cc(F)c(OCCCF)cc1F)C(=O)N[C@@H]1[C@H](O)[C@@H](O)[C@H]2OCO[C@H]2[C@@H]1OCC1CCOC1 (some centres not stated)

result:
1: 0.00; 2: 0.00
